# MEASUREMENT TARGET: T1, UNK ZnF1-3 (human, UniProt Q9C0B0 31-174)
# T1 sequence: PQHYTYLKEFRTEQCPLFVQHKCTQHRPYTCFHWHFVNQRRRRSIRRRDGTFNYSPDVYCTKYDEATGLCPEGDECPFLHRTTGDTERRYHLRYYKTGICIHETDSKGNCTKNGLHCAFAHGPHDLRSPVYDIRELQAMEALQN
# ASSAY NOTES: nsRBNS (natural sequence RNA bind-n-seq); RBNS binding buffer (assumed for nsRBNS): 25 mM Tris pH 7.5, 150 mM KCl, 3 mM MgCl2, 0.01% Triton X-100, 500 ug/ml BSA, 20 U/ml SUPERase-In, 4 C; UNK is unkempt and MSI1 is Musashi-1; names of the RNAs are library labels; protein concentration not given here; high values mean tight binding
In all, about 24,000 sequences were measured (“enrichment r”: median about 0.99, highest 2% from about 3.7 on). What follows is part of a selection rich in the highest values, with near analogues and random picks from the rest.
binding signal overview
Express your answer in enrichment R, writing the number without its unit.

Take a look at these entries with their results.
chrX:98862621:98862622:+_ENSMUSG00000034160_ENSMUST00000044475|mus_hu|mus_mus_mus_hu_False|18_68 (ssRNA) RNA: GGGAGUUCUACAGUCCGACGAUCCUGCAUCUCCUUUAGAGUGUUUCCCAUAUUAGAGUAGGCAUCAGCAAAUGUAGGACUGAUUCGAAUAGCCUCCUUAUAAUGCAUCAGAGCUUCCUGCAGCUUGCCCUGCUGCUGCAGUACCAACAGAGGAUUGAGCAUCA    1.07
chr15:76909541:76909542:-_ENSMUSG00000033565_ENSMUST00000166610|perfect_dup|FALSE|FALSE (ssRNA) RNA: GGGAGUUCUACAGUCCGACGAUCAACAUGAUCAAUAAUUUAUACACAUGGAGAGUAAUACAAAAAAAUAAGGAAUAAAAGCUAAAGAUCUAACUACUCCGACCUUCACAAUUCCAGCUACUUGAUAAUAAUAGGAGUAACCCACAACAGAGGAUUGAGCAUCA    6.42
chr11:4127340:4127341:+_ENSG00000167325_ENST00000300738|hu_mus|hu_hu_hu_mus_False|28_88 (ssRNA) RNA: GGGAGUUCUACAGUCCGACGAUCGGCAUAGUCAGGGUGCUUCGUGGUCAAGGUUGCGGCUGUCUCAGCAGCCAGGGUGUCCAGUUCCACUGUGGUGACCCCACUAUACAAGCCUUGGAUUACUUUCAUGGUGAUCUGAGCAGGCAACAGAGGAUUGAGCAUCA    0.876
chr1:163117127:163117128:-_ENSG00000143248_ENST00000313961|hu_mus|hu_hu_hu_mus_False|48_78 (ssRNA) RNA: GGGAGUUCUACAGUCCGACGAUCUGCUACAAAGGAUGUAACUCAACUCACAGGGCAUGAUUUCAUAGCCUGACCAGAUGACUACUUGAUUAACUCCUUAUAAAAUUCAGAGCGCACAAAGCGGGGCAGAGAAUCCUUCUCCAUCAACAGAGGAUUGAGCAUCA    1.08
chr12:39756943:39756944:-_ENSG00000139116_ENST00000544797|hu_mus|hu_hu_hu_mus_False|48_78 (ssRNA) RNA: GGGAGUUCUACAGUCCGACGAUCGGUUUGGCUGUUACCCCCAAGGGAAUCCUGCAAUAGUCUUGUUAGCUUAGAGUCUCUGUAAGGGACAUGUGUGGCUCUCUUGCUCUUGUCCCCCAAGGCGCUGAUUACAUUCCCAAGAGCCAACAGAGGAUUGAGCAUCA    0.772

Tell me the measured binding signal of chrX:100667754:100667755:+_ENSG00000126945_ENST00000316594|hu_hu|FALSE|FALSE (ssRNA) RNA: GGGAGUUCUACAGUCCGACGAUCUCCGUAUCUAUGAUCAGACAUUCCUGAAAAACAGUAAUUGAGGUCUCUUCCAAAUCUAUCAGACCCAAAGCCAUAUCCAUCAUUAUAGCCACCAUAGUCAUCAUAGCCUCCAUACCCUCCCAACAGAGGAUUGAGCAUCA , please.
1.11

Tell me the measured binding signal of chr1:60041781:60041782:+_ENSMUSG00000041040_ENSMUST00000036540|mus_hu|mus_mus_mus_hu_False|18_88 (ssRNA) RNA: GGGAGUUCUACAGUCCGACGAUCAAGUUUACAAUAGUAAAGUAAAUCAAAUUUAGUCAAAUUUUCUUUUAUUUUCCUUCACAAAAGAAAAUCUUUAUAACCCAGUCCUAGUCUUGGCAGAGAAAGCAGCUAUAAAUUCUGACUCAACAGAGGAUUGAGCAUCA , please.
0.9

Tell me the measured binding signal of chr2:74756847:74756848:-_ENSG00000115307_ENST00000377526|hu_hu|FALSE|FALSE (ssRNA) RNA: GGGAGUUCUACAGUCCGACGAUCGCCGCCAUUUUCGCGCCCGGCCGCAGGGGCUCUUGGGAAGGCGGAGUCUUUGGGCAUCCGCCCGGGGUGAGGGGACCCGAAGUCCUGAGGCGCGCCGGAAGGGCUAGCGGUCCCAGCAUACAACAGAGGAUUGAGCAUCA , please.
0.69

Tell me the measured binding signal of chr1:39494447:39494448:+_ENSG00000168653_ENST00000372967|hu_mus|hu_hu_hu_mus_False|18_18 (ssRNA) RNA: GGGAGUUCUACAGUCCGACGAUCGCACCGAGCGGCGUUCUUAUAGGGCUGUUCUGCGCUUAGGAACAUAAAGUGCCGGUCCAGGCUGAUGCCCAGCUUUUUCUGUAUGUCAAGGAAAGGCAUGGCCCUGCAGUGCCCUUGUCACAACAGAGGAUUGAGCAUCA , please.
0.805

Tell me the measured binding signal of chr1:163117127:163117128:-_ENSG00000143248_ENST00000313961|hu_mus|hu_hu_hu_mus_False|18_78 (ssRNA) RNA: GGGAGUUCUACAGUCCGACGAUCUGCUACAAAGGAUGUAACUCAACUCACAGGGCAUGAUUUCAUAGCCUGACCAGAUGACUACUUGAUUAGCUCCUUAUAAAAUUCAGAGCGCACAAAGCGAGGCAGAGAAUCCUUCUCCAUCAACAGAGGAUUGAGCAUCA , please.
0.919

Tell me the measured binding signal of chr7:130129250:130129251:+_ENSMUSG00000030779_ENSMUST00000052135|mus_mus|FALSE|FALSE (ssRNA) RNA: GGGAGUUCUACAGUCCGACGAUCCUCCUCUGGUAAGAAGGGUGGUUUCUCUUUCUUCCCGAUUGCAUAGGCCUCUGCAUCUAUAGUUGGUAUUGCAUAUUUUCCAGUGUUUGUAAGCAUUGCACCUUUCAUGUUAGGAUCUUUCAACAGAGGAUUGAGCAUCA , please.
0.384

Tell me the measured binding signal of chr16:45382771:45382772:-_ENSMUSG00000022661_ENSMUST00000163230|mus_mus|mus_mus_mus_hu_True|38_88 (ssRNA) RNA: GGGAGUUCUACAGUCCGACGAUCCUGGGUCAUGUUAUAAGACAAAUGGAUAGGGAGGGCAUGCUUCUCAAAAAAUGUGAGCUAUUGUCUAAGACUAACAAUAUUGCUCUAGCUAUAAAAAUAAGUUAAAUGAAUAAGUUAAGACAACAGAGGAUUGAGCAUCA , please.
7.9

Tell me the measured binding signal of chr9:34402745:34402746:-_ENSG00000164970_ENST00000297620|hu_hu|motif|central (ssRNA) RNA: GGGAGUUCUACAGUCCGACGAUCGGGGACGACCAGCCUUGUUCGGGCCAUGACAUUGUUCUUCUUGGGUUGCUGGUUGACAGGGCGGCCCAUGCUGCCAUUCUUCAGGGAGCCCUUCCGGGCCAGCUCCCGCUGCUUCUCCUCCAACAGAGGAUUGAGCAUCA , please.
0.859
